experiment.summary: melting temperature; fluorescence melt of hairpins on a sequencing array, two-state fit, raised by 9.35 °C to match UV melts
condition.set: sodium 0.088 M
Friendly reminder: Tm below 50 °C is class 1, at or above is class 0.

Query :: Item GAGAAAACGAAAGTTCTC (((..(((....)))))) : Tm beneath 50 °C, strictly?
Result :: class 1

Query :: Item GATCCATTCGTGGATC ((((((....)))))) : Tm beneath 50 °C, strictly?
Result :: class 0

Query :: Item GATCTCCGGTGAGATC ((((((....)))))) : Tm beneath 50 °C, strictly?
Result :: class 0

Query :: Item GTTACTGGAAACAGTAAC (((((((....))))))) : Tm beneath 50 °C, strictly?
Result :: class 0

Query :: Item GACGAAGGAAACTTCGCC (.(((((....))))).) : Tm beneath 50 °C, strictly?
Result :: class 1

Query :: Item GTTGCGGGAAACCGTGAC ((..(((....)))..)) : Tm beneath 50 °C, strictly?
Result :: class 1

Query :: Item GTGCTACGAAAGTACAC (((.(((....)))))) : Tm beneath 50 °C, strictly?
Result :: class 1

Query :: Item GCACTTGGAAACGAGTGC (((((.(....).))))) : Tm beneath 50 °C, strictly?
Result :: class 0

Query :: Item GTTCCCGGAAACGAGAAC ((((.((....)).)))) : Tm beneath 50 °C, strictly?
Result :: class 1

Query :: Item GCAGTCGAAAGACTATGC ((((((....)))..))) : Tm beneath 50 °C, strictly?
Result :: class 1

Query :: Item GGGACGGGAAACCGTCTC (.(((((....))))).) : Tm beneath 50 °C, strictly?
Result :: class 0

Query :: Item GAAACCGAAAGGTCCTTC ((((((....)))..))) : Tm beneath 50 °C, strictly?
Result :: class 1

Query :: Item GGTTTCGAAAGAATTACC ((((((....)))..))) : Tm beneath 50 °C, strictly?
Result :: class 1

Query :: Item TAATCGAAAGATTA (((((....))))) : Tm beneath 50 °C, strictly?
Result :: class 1

Query :: Item GGTTCCGAAAGGAAGACC ((((((....)))..))) : Tm beneath 50 °C, strictly?
Result :: class 1

Query :: Item GATCACCCCTGTGATC ((((((....)))))) : Tm beneath 50 °C, strictly?
Result :: class 0

Query :: Item GTCAAGCCGAAAGGCGAC (((..(((....)))))) : Tm beneath 50 °C, strictly?
Result :: class 1

Query :: Item GGCAGCGAAAGCTCGCC ((((((....))).))) : Tm beneath 50 °C, strictly?
Result :: class 0

Query :: Item GTTTCCGAAAGGAGTAAC ((((((....)))..))) : Tm beneath 50 °C, strictly?
Result :: class 1

Query :: Item GTGAACGAAAGTTTCAC ((((((....))).))) : Tm beneath 50 °C, strictly?
Result :: class 1

Query :: Item GCGTCGCGAAAGCAAAGC ((.(.((....)).).)) : Tm beneath 50 °C, strictly?
Result :: class 0

Query :: Item GATCGAAGGTTCGATC ((((((....)))))) : Tm beneath 50 °C, strictly?
Result :: class 0

###

experiment.summary: melting temperature; fluorescence melt of hairpins on a sequencing array, two-state fit, raised by 9.35 °C to match UV melts
condition.set: sodium 0.088 M
readout: Tm (°C)
Just the number in °C, nothing appended.

Query :: Find the measured Tm of GGCAATGGAAACGTTGCC (((((.(....).))))) and report it.
Result :: 54.5

Query :: Find the measured Tm of GCGAGATTTCGC ((((....)))) and report it.
Result :: 50.1

Query :: Find the measured Tm of GGTGGTGGAAACATCACC ((((.((....)).)))) and report it.
Result :: 52.3

Query :: Find the measured Tm of GCGGCCGGAAACGACCGC ((((.((....)).)))) and report it.
Result :: 67.2

Query :: Find the measured Tm of GGTATTACGAAAGTAACC (((..(((....)))))) and report it.
Result :: 27.5

Query :: Find the measured Tm of GAGGACGAAAGTCAGCTC ((((((....)))..))) and report it.
Result :: 42

Query :: Find the measured Tm of GCGTAACGAAAGTTCGC (((.(((....)))))) and report it.
Result :: 55.9

Query :: Find the measured Tm of GCCGGGCGAAAGCGTGGC (((..((....))..))) and report it.
Result :: 65.9

Query :: Find the measured Tm of GAATAGCGAAAGCTTTTC (((.(((....))).))) and report it.
Result :: 36.6

Query :: Find the measured Tm of GGCCCGGGAAACCGGACC ((.((((....)))).)) and report it.
Result :: 57.5

Query :: Find the measured Tm of GAATAAGAAATTATTC ((((((....)))))) and report it.
Result :: 31.9

Query :: Find the measured Tm of GATTGGGAAACCAATC ((((((....)))))) and report it.
Result :: 52.3

Query :: Find the measured Tm of GATCGCTCACGCGATC ((((((....)))))) and report it.
Result :: 67.8

Query :: Find the measured Tm of GCCATGGGAAACCGTGGC ((((.((....)).)))) and report it.
Result :: 59

Query :: Find the measured Tm of GCCCCGCGAAAGCCCGGC (((..((....))..))) and report it.
Result :: 38.9

Query :: Find the measured Tm of GCACCATCGAAAGATTGC (((..(((....)))))) and report it.
Result :: 29.1

Query :: Find the measured Tm of GGAACCGAAAGGTTTCC ((((((....))).))) and report it.
Result :: 53.8

Query :: Find the measured Tm of GGTTGAGAAATCAACC ((((((....)))))) and report it.
Result :: 53.3

Query :: Find the measured Tm of GGAGTGGGAAACCGCTCC ((((.((....)).)))) and report it.
Result :: 57.8

Query :: Find the measured Tm of GATCGACCTTCGATC ((((((...)))))) and report it.
Result :: 51

Query :: Find the measured Tm of GGGCGTGGAAACGCGTCC ((.((.(....).)).)) and report it.
Result :: 50.7

Query :: Find the measured Tm of GAGTACGAAAGTAAACTC ((((((....)))..))) and report it.
Result :: 35.9

Query :: Find the measured Tm of GGAATGCGAAAGCAGTCC (((.(((....))).))) and report it.
Result :: 61.2

Query :: Find the measured Tm of GCCGGGCGAAAGCATGGC (((..((....))..))) and report it.
Result :: 64.9

Query :: Find the measured Tm of GCACGTGGAAACACACGC ((..(((....)))..)) and report it.
Result :: 37.8

Query :: Find the measured Tm of TGTAGGAAACTACA (((((....))))) and report it.
Result :: 36.9

Query :: Find the measured Tm of GCACCGGGAAACCGGCAC (..((((....))))..) and report it.
Result :: 28.3

Query :: Find the measured Tm of GCATGGCGAAAGCTAGGC ((.(.((....)).).)) and report it.
Result :: 52.2

Query :: Find the measured Tm of GCCCTGCCGAAAGGCGGC (((..(((....)))))) and report it.
Result :: 54.9

Query :: Find the measured Tm of GTCGGCGAAAGCCACGAC ((((((....)))..))) and report it.
Result :: 56

Query :: Find the measured Tm of GGCCGCCGAAAGGCGCC (((.(((....)))))) and report it.
Result :: 68.2

Query :: Find the measured Tm of GACTAGGAAACTAGTC ((((((....)))))) and report it.
Result :: 50.8

Query :: Find the measured Tm of GATCCGGATTCGGATC ((((((....)))))) and report it.
Result :: 59.1

Query :: Find the measured Tm of AGTTGGAAACAACT (((((....))))) and report it.
Result :: 43.2

Query :: Find the measured Tm of GGCGCATCGAAAGATGCC (((..(((....)))))) and report it.
Result :: 45.2

Query :: Find the measured Tm of GGTGCAGCGAAAGCTACC (((..(((....)))))) and report it.
Result :: 39.1

Query :: Find the measured Tm of CGAGGTCGGAAACGATCG (((..(((....)))))) and report it.
Result :: 41.2

Query :: Find the measured Tm of GCCCTTGGAAACGAGGGC (((((.(....).))))) and report it.
Result :: 57.5

Query :: Find the measured Tm of GATCCGGGAGCGGATC ((((((....)))))) and report it.
Result :: 61.1

Query :: Find the measured Tm of GGACCCGAAAGGGATCC ((((((....))).))) and report it.
Result :: 54.2

Query :: Find the measured Tm of GCGGAGCGAAAGCTATGC ((..(((....)))..)) and report it.
Result :: 44.5

Query :: Find the measured Tm of GTGCCTGCGAAAGCACAC (((..(((....)))))) and report it.
Result :: 55

Query :: Find the measured Tm of GGAAGATCGAAAGATTCC (((..(((....)))))) and report it.
Result :: 29.8

Query :: Find the measured Tm of GTATGCGGAAACGCGTAC (((.(((....))).))) and report it.
Result :: 55

Query :: Find the measured Tm of GATCTGTCCCCAGATC ((((((....)))))) and report it.
Result :: 47.9

Query :: Find the measured Tm of GCCCCGCGAAAGCTAGGC (((..((....))..))) and report it.
Result :: 45

Query :: Find the measured Tm of GATCCGGGGCGGATC ((((((...)))))) and report it.
Result :: 56

Query :: Find the measured Tm of GACTCCGAAAGGAGCGTC ((((((....)))..))) and report it.
Result :: 49.9

Query :: Find the measured Tm of GCTCGCGAAAGCGTAAGC ((((((....)))..))) and report it.
Result :: 51.3

Query :: Find the measured Tm of GATCACCCGAGTGATC ((((((....)))))) and report it.
Result :: 57
